Protocol: Acute toxicity (LD50) in mice, intraperitoneal
Condition Set: mouse, in vivo, ip, suspension in carboxymethyl cellulose, observed one week
Structures can show the parent of a compound that is named as a salt.
Catalogue of LD50 at 168 h values

Answered cases to consult:
IN: Entry O=C1Nc2ccccc2C1C1CCN(C[C@H](O)[C@H]2COc3ccccc3O2)CC1 (relative stereo) [Example 2, hydrochloride] : reported LD50 at 168 h = ?
OUT: ~125 mg/kg

IN: Entry CN1C(=O)C(C2CCN(C[C@H](O)[C@H]3COc4ccccc4O3)CC2)c2ccccc21 (relative stereo) [Example 4, hydrochloride] : reported LD50 at 168 h = ?
OUT: ~200 mg/kg

IN: Entry Cl.O=C1Nc2ccccc2C1C1CCN(CC(O)C2COc3ccccc3O2)CC1 (stereo not shown) : reported LD50 at 168 h = ?
OUT: ~150 mg/kg

Please turn your attention to the following entry.
IN: Entry O=C1Nc2ccccc2C1C1CCN(C[C@H](O)[C@@H]2COc3ccccc3O2)CC1 (relative stereo) [Example 3, hydrochloride] : reported LD50 at 168 h = ?
OUT: ~125 mg/kg
